Test system: CCRF-CEM leukemia
Assay: NCI-60 one-dose screen, 48 h
Conditions: 10 µM unless noted
Compounds without any hit were thinned out: in the full panel of roughly 83,000, 20% have a hit. Activity calls are given as the source filed them. The calls were made as follows: active = growth percent below 10; inactive = the rest.
Outcome codes: active, inactive

[[record]]
compound = "CN(C)CCn1c2ccccc2c2nc3cc4ccccc4cc3nc21"
categorylabel = "inactive"

[[record]]
compound = "COc1ccc2[nH]c(O)c(N=NC(=O)Cn3c(-c4ccccc4)nc4cc(C)ccc43)c2c1"
categorylabel = "active"

[[record]]
compound = "COc1cc(-c2ccc(/C=N/NC(=O)c3[nH]c4ccc(Br)cc4c3-c3ccccc3)s2)cc(OC)c1OC"
categorylabel = "inactive"

[[record]]
compound = "CCCCCCCCOc1cccc(S(=O)(=O)Nc2ccc(C)cc2C(=O)O)c1"
categorylabel = "inactive"

[[record]]
compound = "CC1=C(C(=O)c2ccccc2)C(c2cccc3ccccc23)n2c(nc3ccccc32)N1 (stereo not drawn)"
categorylabel = "inactive"

[[record]]
compound = "Cc1ccc(S(=O)(=O)c2nc(S(=O)(=O)c3ccc(C)cc3)c(N3CCN(C)CC3)s2)cc1"
categorylabel = "inactive"

[[record]]
compound = "CCN(CC)c1ccnc(CNCCSC(c2ccccc2)(c2ccccc2)c2ccc(C)cc2)c1"
categorylabel = "active"

[[record]]
compound = "CCOC(=O)C1=C(N)N(c2ccccc2)C2=C(C(=O)CC(C)(C)C2)C1c1ccccc1Cl (stereo not drawn)"
categorylabel = "inactive"

[[record]]
compound = "O=C(NNc1nc2cc(F)ccc2n2c(CN3CC4CNCC4C3)ccc12)c1ccncn1 (stereo not drawn)"
categorylabel = "inactive"

[[record]]
compound = "O=[N+]([O-])c1ccc(/C=C/c2nc3ccccc3n3c(=S)[nH]nc23)cc1"
categorylabel = "inactive"

[[record]]
compound = "OCC1(CCCc2ccccc2)CCCN(c2nccc3ccccc23)C1 (stereo not drawn)"
categorylabel = "inactive"

[[record]]
compound = "O=C(CCN1C(=O)/C(=C/c2ccc(F)cc2)SC1=S)N1CCOCC1"
categorylabel = "inactive"

[[record]]
compound = "C=C1CCC2C3(C)COC(c4cc(F)cc(F)c4)OC3CCC2(C)C1CC(O)C1=CCOC1=O (stereo not drawn)"
categorylabel = "inactive"

[[record]]
compound = "COc1cc2c(c(OC)c1OC)C(=O)CC(c1cccc(NC(=O)c3cc(NC(=O)[C@H](CO)NC(=O)OC(C)(C)C)ccc3Cl)c1)O2 (stereo partly drawn)"
categorylabel = "inactive"

[[record]]
compound = "Clc1cccc(Cl)c1/C=C/c1cc(/C=C/c2ccc(Br)cc2)c2ccccc2n1"
categorylabel = "inactive"

[[record]]
compound = "O=C(CN1C(=O)/C(=C/c2ccccc2F)SC1=S)N1CCOCC1"
categorylabel = "inactive"

[[record]]
compound = "CCOC(=O)C1=C(N)N(c2ccccc2)C2=C(C(=O)CC(C)(C)C2)C1c1cccc(Cl)c1Cl (stereo not drawn)"
categorylabel = "inactive"

[[record]]
compound = "CN1CCN(/C(=N\\c2sc(-c3ccccc3)nc2-c2ccccc2)c2ccccc2)CC1"
categorylabel = "inactive"

[[record]]
compound = "O=C(N=Nc1c(O)[nH]c2ccc(Cl)cc12)c1ccc2nc(-c3ccccc3)[nH]c2c1"
categorylabel = "inactive"

[[record]]
compound = "O=C(CN1C(=O)/C(=C/c2ccccc2Cl)SC1=S)N1CCOCC1"
categorylabel = "inactive"

[[record]]
compound = "COc1ccc(-c2ccnc(SCc3cc4cc(Cl)ccc4[nH]c3=O)n2)cc1"
categorylabel = "inactive"

[[record]]
compound = "COc1ccc2c(c1)c(-c1cc3nc(-c4cn(C)c5ncccc45)cc(N)n3n1)cn2C"
categorylabel = "active"

[[record]]
compound = "COc1ccc(-c2ccc(SCC(=O)NCCc3ccc(S(N)(=O)=O)cc3)nn2)cc1"
categorylabel = "inactive"

[[record]]
compound = "N#Cc1c(-c2ccccc2Cl)cc(-c2ccc3ccccc3c2)[nH]c1=O"
categorylabel = "inactive"

[[record]]
compound = "COc1ccc2[nH]cc(-c3nnc(N)nc3-c3cn(C)c4ncc(Br)cc34)c2c1"
categorylabel = "inactive"

[[record]]
compound = "Cc1ccccc1[C@H]1C(C(=O)c2ccc(Cl)cc2)C2(N[C@@H]1c1ccccc1)C(=O)Nc1ccc(Br)cc12 (stereo partly drawn)"
categorylabel = "active"

[[record]]
compound = "O=C(NN1C(=O)/C(=C/C=C/c2ccc([N+](=O)[O-])o2)SC1=S)c1ccccc1O"
categorylabel = "active"

[[record]]
compound = "CCCCn1c(O)c(N=Nc2nc(-c3cc4ccccc4oc3=O)cs2)c2cc(Br)ccc21"
categorylabel = "inactive"

[[record]]
compound = "CC(=O)Oc1ccc(/C=C/C(=O)N[C@@H](Cc2ccccc2)C(O)C(=O)NCc2ccccc2)cc1OC(C)=O (stereo partly drawn)"
categorylabel = "inactive"

[[record]]
compound = "CCN(CC)c1ccc(/C=N/Nc2nc(-c3ccc(C)cc3)cs2)c(O)c1"
categorylabel = "inactive"

[[record]]
compound = "Cn1cc(-c2cc(N)n3nc(-c4cn(C)c5ccccc45)cc3n2)c2cc(Cl)ccc21"
categorylabel = "active"

[[record]]
compound = "CCCCCCCCc1ccc(C(=O)Nc2ccc(C)cc2C(=O)O)cc1C"
categorylabel = "inactive"

[[record]]
compound = "COc1cc2c(c(OC)c1OC)C(=O)CC(c1cccc(NC(=O)c3cccc([N+](=O)[O-])c3)c1)O2 (stereo not drawn)"
categorylabel = "inactive"

[[record]]
compound = "CCOc1ccc(-c2c(C#N)c(-c3ccc(Cl)cc3)nc3n[nH]c(-c4ccc(Cl)cc4)c23)cc1OC"
categorylabel = "inactive"

[[record]]
compound = "Cn1cc(-c2cc3nc(-c4cn(C)c5ncccc45)cc(N)n3n2)c2ccccc21"
categorylabel = "active"

[[record]]
compound = "Cc1ccc(C2=NN(c3nc(-c4cc5ccccc5oc4=O)cs3)C(c3ccc(C)cc3)C2)cc1 (stereo not drawn)"
categorylabel = "inactive"

[[record]]
compound = "COc1ccc(C(=O)/C=C/c2ccc(Oc3nc(Nc4ccc(F)cc4)nc(N(C)C)n3)c(OC)c2)cc1"
categorylabel = "inactive"

[[record]]
compound = "CC1CCCCN1CCCNC(=O)N/C(N)=N/c1nc2ccccc2s1 (stereo not drawn)"
categorylabel = "inactive"

